Give phosphorylation enrichment for every item shown.
- target of assay: MERTK (UniProt Q12866)
- Sequence (Q12866 whole entry, looked up): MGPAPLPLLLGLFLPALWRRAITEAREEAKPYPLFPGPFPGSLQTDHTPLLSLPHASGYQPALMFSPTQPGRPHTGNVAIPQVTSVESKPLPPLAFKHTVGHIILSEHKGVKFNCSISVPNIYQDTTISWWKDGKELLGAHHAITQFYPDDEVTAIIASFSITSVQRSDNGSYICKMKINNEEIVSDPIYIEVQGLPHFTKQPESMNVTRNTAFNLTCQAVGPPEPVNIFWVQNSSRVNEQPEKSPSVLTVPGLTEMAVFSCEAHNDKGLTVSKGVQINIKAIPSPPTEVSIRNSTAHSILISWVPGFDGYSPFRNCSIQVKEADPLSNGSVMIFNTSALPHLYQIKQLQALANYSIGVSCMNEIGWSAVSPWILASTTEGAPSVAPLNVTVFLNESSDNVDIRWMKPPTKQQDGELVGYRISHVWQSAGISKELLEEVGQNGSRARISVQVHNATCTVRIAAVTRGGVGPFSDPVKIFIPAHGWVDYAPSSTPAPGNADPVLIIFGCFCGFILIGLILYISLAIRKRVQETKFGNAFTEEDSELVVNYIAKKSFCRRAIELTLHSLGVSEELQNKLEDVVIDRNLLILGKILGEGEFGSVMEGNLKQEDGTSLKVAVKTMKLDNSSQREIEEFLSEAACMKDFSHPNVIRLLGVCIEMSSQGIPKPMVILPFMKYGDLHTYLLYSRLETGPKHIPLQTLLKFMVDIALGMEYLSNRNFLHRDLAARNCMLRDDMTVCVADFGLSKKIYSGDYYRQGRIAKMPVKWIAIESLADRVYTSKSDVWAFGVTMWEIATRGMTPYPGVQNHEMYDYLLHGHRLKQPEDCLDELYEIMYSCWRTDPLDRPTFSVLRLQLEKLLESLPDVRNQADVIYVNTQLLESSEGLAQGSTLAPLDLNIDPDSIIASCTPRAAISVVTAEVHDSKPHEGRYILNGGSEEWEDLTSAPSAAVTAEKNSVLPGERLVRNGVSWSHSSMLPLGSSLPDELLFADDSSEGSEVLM
- run description: phosphorylation enrichment, bacterial display (enrichment ratio); higher = better substrate or ligand; peptides without Tyr show the background
Form field (numeric): enter value without unit.

Q. Which phosphorylation enrichment is listed for RDSQIYAVDFE [MRPS34_Y34_L33I_YF] ?
A. 5.64

Q. Again, but for ELAKFYKLHHI [AK7_Y391_N389K_YF]
A. 0.536

Q. Again, but for NLDRFYQQVTK [SEC16A_Y1041]
A. 0.58

Q. Again, but for RFLERDIFNRE [HLA-DPB1_Y57_Y57D_YF]
A. 0.548

Q. Again, but for EYITRYIDSLK [PSMA7_Y110_A112D]
A. 0.395

Q. Again, but for GHEYIYVDRMQ [PDGFRB_Y581_P584R]
A. 0.48

Q. Again, but for DHAGMYGLGDR [MAPT_Y18_T17M]
A. 0.371

Q. Again, but for LPPGEYVVVPS [CAPN1_Y494]
A. 0.927

Q. Again, but for DMDATYRPMYS [JUP_Y701]
A. 0.407

Q. Again, but for IRTIDYRYTVS [IDS_Y497_W502S]
A. 0.411

Q. Again, but for SRASFYRKGGC [ALK_Y1283_Y1278S_YF]
A. 0.567

Q. Again, but for QSHKVYFQHLL [POR_Y604_V605F]
A. 0.725

Q. Again, but for VTSLKYSTSPF [BRIP1_Y916_YF]
A. 0.412

Q. Again, but for SEDANYKRVSC [TTC3_Y1288]
A. 0.449

Q. Again, but for RGLQVYHKRNA [LRP2_Y2010_R2012K]
A. 0.496

Q. Again, but for NGSFRYVIISQ [LRP1B_Y1988]
A. 0.448

Q. Again, but for FPLAEYTEVKT [ALDH1A3_Y497_A493P_YF]
A. 0.4

Q. Again, but for IRKDLYANNVL [ACTA2_Y296]
A. 0.476

Q. Again, but for VTPVMYTFDEF [COL10A1_Y623_G618V_YF]
A. 0.962

Q. Again, but for WPLKWYVPECI [ZAP70_Y506_A507V]
A. 0.382

Q. Again, but for ASPKSYPSQKH [CAP2_Y316_T311A]
A. 0.356

Q. Again, but for LEIETDRRLLD [KRT12_Y429_Y429D]
A. 0.93

Q. Again, but for SGGCSYGSGGG [KRT1_Y539_G537C]
A. 0.346

Q. Again, but for QNVADYMRCLM [RPL5_Y207_Y210C]
A. 0.42

Q. Again, but for PELINYHQHNS [BTK_Y361]
A. 0.579

Q. Again, but for INPIIYAFVVE [CCR5_Y297_G301V]
A. 4.13

Q. Again, but for ISSLRYKLLEE [TRPC6_Y896_E897K]
A. 0.347

Q. Again, but for FQKDVYNIPPS [NEDD9_Y177_D178N_YF]
A. 0.883

----------
- target of assay: Fes (UniProt P07332)
- Sequence (P07332 whole entry, looked up): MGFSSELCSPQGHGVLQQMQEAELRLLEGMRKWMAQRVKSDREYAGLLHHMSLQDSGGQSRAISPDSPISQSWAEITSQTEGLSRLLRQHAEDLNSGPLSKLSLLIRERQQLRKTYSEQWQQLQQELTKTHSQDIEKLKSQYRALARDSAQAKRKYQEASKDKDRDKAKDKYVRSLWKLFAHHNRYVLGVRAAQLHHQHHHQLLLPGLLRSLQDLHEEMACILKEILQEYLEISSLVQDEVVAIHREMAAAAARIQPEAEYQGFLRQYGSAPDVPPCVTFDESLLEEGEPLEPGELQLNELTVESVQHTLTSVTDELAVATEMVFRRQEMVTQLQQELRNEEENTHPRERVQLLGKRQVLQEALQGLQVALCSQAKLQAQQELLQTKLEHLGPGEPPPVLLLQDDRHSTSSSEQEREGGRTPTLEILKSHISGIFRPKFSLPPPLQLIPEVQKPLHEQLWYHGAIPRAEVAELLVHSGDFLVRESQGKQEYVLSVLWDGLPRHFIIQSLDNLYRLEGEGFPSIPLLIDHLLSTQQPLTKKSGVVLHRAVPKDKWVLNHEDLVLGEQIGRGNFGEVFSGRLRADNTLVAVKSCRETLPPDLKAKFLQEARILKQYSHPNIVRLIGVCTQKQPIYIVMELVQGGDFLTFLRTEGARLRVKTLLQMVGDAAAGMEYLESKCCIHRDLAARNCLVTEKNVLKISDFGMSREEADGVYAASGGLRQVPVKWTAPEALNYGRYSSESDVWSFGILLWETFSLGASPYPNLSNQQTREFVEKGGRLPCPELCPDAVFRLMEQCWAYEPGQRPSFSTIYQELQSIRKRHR
- run description: phosphorylation enrichment, bacterial display (enrichment ratio); higher = better substrate or ligand; peptides without Tyr show the background
If the reported phosphorylation enrichment equals or exceeds 1, assign label 1. If not, assign label 0.

Q. State whether the measured phosphorylation enrichment reaches 1, counting equality as reaching it, for TRSFKYLLLSM [NF1_Y491_YF]
A. label 1

Q. Again, but for RGFDTYFGYLL [ARSB_Y165]
A. label 1

Q. Again, but for HLWRIYYDITD [MMP27_Y307]
A. label 1

Q. Again, but for NYYDTCIKTCL [IQGAP2_Y1445_Y1445C]
A. label 1

Q. Again, but for FHRQLYHKCTH [F12_Y58_YF]
A. label 0

Q. Again, but for YLEKYYKFGCR [NNMT_Y25_S29C]
A. label 1

Q. Again, but for WKEREYEVVRD [CPS1_Y634_I632R]
A. label 1

Q. Again, but for DNQFAYLKAII [HNF4A_Y288_E285Q_YF]
A. label 1

Q. Again, but for NGEDPYAGSTD [XRCC1_Y515]
A. label 1

Q. Again, but for FQRLRYIKQLG [SAMHD1_Y146]
A. label 0

Q. Again, but for HQPGEYIFHAE [FLT3_Y416]
A. label 1

Q. Again, but for YAKSVYWENTL [NUP107_Y296]
A. label 0

Q. Again, but for VKPENYWRLDI [VHL_Y175_R176W]
A. label 1

Q. Again, but for AHLLQYNHRVK [LGALS3_Y221]
A. label 0

Q. Again, but for AAVLNYKAWRD [GRIN2A_Y737_G740W]
A. label 0

Q. Again, but for HGEAVYSRDCV [XPC_Y676_R671H]
A. label 0

Q. Again, but for NVVHEYSSELE [FGB_Y172_N170H]
A. label 1

Q. Again, but for DEEPPYRGPFC [SASH1_Y551]
A. label 0

Q. Again, but for RRFLFYFSFLL [PTEN_Y177_V175L_YF]
A. label 0

Q. Again, but for SENAFYLSPDI [COL6A3_Y2827]
A. label 1

Q. Again, but for CTTIHYHFMCN [TP53_Y234_N235H_YF]
A. label 1

Q. Again, but for FRPPFYHRDCM [HGD_Y334_N337D_YF]
A. label 1

Q. Again, but for LYSINYLHFGD [KDM4C_Y201_E206D]
A. label 1

Q. Again, but for KRIETYFSKNF [PLP1_Y50_L46R_YF]
A. label 0

Q. Again, but for NSNSDYVDILP [SH2D1B_Y127_V130I]
A. label 1

Q. Again, but for `AKIDGYITSYR`
A. label 0

Q. Again, but for AKLNIYKRKVE [VWA3B_Y918]
A. label 0

Q. Again, but for EEGRVYVYRLS [ITGAE_Y549]
A. label 1

Q. Again, but for MFQVQYNSSVD [LRFN1_Y458_YF]
A. label 0

----------
Give SH2 binding enrichment for every item shown.
- target of assay: c-Src SH2;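 note: peptide library displayed on the E. coli surface as eCPX fusions, selected cells deep-sequenced, score is each peptide's frequency after selection divided by its frequency in the input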
- run description: SH2 binding enrichment of the phosphorylated peptide, bacterial display (enrichment ratio); higher = better substrate or ligand; peptides without Tyr show the background

Q. Which SH2 binding enrichment is listed for KILTHYKRPHT [KMT2D_Y5349] ?
A. 1.56

Q. Again, but for SHSMRYFDTSV [HLA-C_Y31_A35S]
A. 0.367

Q. Again, but for REAAAYPHGRL [AGXT_Y297_L298P]
A. 0.55

Q. Again, but for VDSIEYEVASQ [SLC7A7_Y7_T5I]
A. 0.452

Q. Again, but for QFLMKYVRSAS [ABCD1_Y337_W339R]
A. 0.369

Q. Again, but for NGSFRYVIISQ [LRP1B_Y1988]
A. 2.17

Q. Again, but for SEDANYKRVSC [TTC3_Y1288]
A. 0.594

Q. Again, but for LEIETYPRLLD [KRT12_Y429_R430P]
A. 0.498

Q. Again, but for QEGPEYWDQNT [HLA-A_Y83_E87N]
A. 0.419

Q. Again, but for TTANRYLKVSD [MYOM2_Y871]
A. 0.643

Q. Again, but for FLLTVYSIFSK [SGCE_Y38]
A. 1.38

Q. Again, but for LLARLYRGQAL [FGFR4_Y390_G388R]
A. 0.461

Q. Again, but for KQRSDYARELE [MYH3_Y1140]
A. 0.512

Q. Again, but for PTDGVYVMPTV [MYO7A_Y1668_S1666G]
A. 0.848

Q. Again, but for LLREWYLQDPF [SIX3_Y225_YF]
A. 0.978

Q. Again, but for EKKKFYDTKIE [CASP5_Y104_YF]
A. 0.427

Q. Again, but for DRLAVYIDRVS [LMNA_Y45_R50S]
A. 0.58

Q. Again, but for IHSGIYFKPES [L2HGDH_Y102_YF]
A. 0.777

Q. Again, but for KPPFSYNALIR [FOXG1_Y186_M191R]
A. 0.742

Q. Again, but for FQLPFYNMVPS [BMPR1A_Y458_YF]
A. 1.97

Q. Again, but for FQKDVYNIPPS [NEDD9_Y177_D178N_YF]
A. 0.479

Q. Again, but for DCVRMYELVHR [GLE1_Y135_G130D]
A. 2.56

Q. Again, but for GRRGQYVMPSE [TTC7A_Y396_L399P]
A. 1.92

Q. Again, but for LLRFLYFFVCS [SLC34A2_Y109_G106R]
A. 1.73

Q. Again, but for VEKGSYSALRA [ABCC2_Y845_L849R]
A. 0.555

Q. Again, but for QSHKVYFQHLL [POR_Y604_V605F]
A. 0.623

Q. Again, but for GISDEYHVIRH [GCDH_Y398]
A. 0.941

Q. Again, but for RNFVRYVQGLK [VWF_Y1400]
A. 0.586

Q. Again, but for FPRAWYRRSIA [KIAA1109_Y4272]
A. 0.462

Q. Again, but for NHYKIYNLYAE [PTEN_Y68_C71Y]
A. 0.675

Q. Again, but for FPLAEYTEVKT [ALDH1A3_Y497_A493P_YF]
A. 1.87

Q. Again, but for DYYDLYGGEKL [PTPN11_Y66_F71L]
A. 0.709

Q. Again, but for RASQEYHIVKK [PDZD2_Y557_S552R]
A. 1.11

Q. Again, but for SSPVLYLSPET [TJP1_Y931_P930L]
A. 0.442

Q. Again, but for ALKWGYTVKGI [OAT_Y158_R154L]
A. 0.625

Q. Again, but for RTLSEYARPHV [RERE_Y1259]
A. 0.553

Q. Again, but for FDDIACIRKTL [PIK3CA_Y1021_Y1021C]
A. 0.51

Q. Again, but for RAIELYNDKEK [OTULIN_Y244]
A. 0.467

Q. Again, but for RDSQLYAVDFE [MRPS34_Y34_YF]
A. 0.701

Q. Again, but for DEDEEYEYMNR [ERBB3_Y1197]
A. 0.634

Q. Again, but for NKVQFYIPDMN [NCR1_Y84_K82Q]
A. 0.464

Q. Again, but for VLTSKYCGGGG [HBA1_Y141_R142C]
A. 0.545

Q. Again, but for MCDKEYFSVHN [MET_Y1234_Y1230C_YF]
A. 0.696

Q. Again, but for LPEVSYVKAID [GLRA1_Y307_K304E]
A. 0.437

Q. Again, but for FRPPFYHRDCM [HGD_Y334_N337D_YF]
A. 1.02

Q. Again, but for YSDPSYVKQME [CDC5L_Y464]
A. 1.05

Q. Again, but for GRVLGYGTFGK [FLT4_Y853_A855T]
A. 0.725

Q. Again, but for MGSFNYLGFAR [SPTLC2_Y178_YF]
A. 0.59

Q. Again, but for PESTLYRKFTT [NTRK1_Y701_I699T]
A. 0.444

Q. Again, but for ATVLNYLPKCI [A2M_Y817]
A. 0.535

Q. Again, but for YGLQAYTKVKT [ALDH2_Y502_E504K]
A. 1.85

Q. Again, but for VATRWYRSPEP [CDKL5_Y177_L182P]
A. 0.422

Q. Again, but for RVLQLYGCSPS [ASTL_Y279_K277Q]
A. 0.493

Q. Again, but for ADKSAYLMGVN [MYH7_Y386_L390V]
A. 0.32

Q. Again, but for CTTIHYTYMCN [TP53_Y234_N235T]
A. 4.85

Q. Again, but for AGVDRYSLGTS [C5orf42_Y1451_P1446A]
A. 0.45

Q. Again, but for HLVSEYQQFQD [TUBB3_Y422_D417H_YF]
A. 0.544
